Origin of values: ChEMBL document CHEMBL1156750

IC50 values recorded for Coagulation factor X (Homo sapiens, UniProt P00742)

COMPOUND_STRUCTURE_STRING	IC50 / nM
Cc1cc2cc(N/C(=N\S(N)(=O)=O)N[C@H]3CCCCN(CC(=O)N4CCCC4)C3=O)ccc2o1	12
Cc1cc2cc(N/C(=N\C(=O)c3ccc(C(=O)N(C)C)cc3)N[C@H]3CCCCN(CC(=O)N4CCCC4)C3=O)ccc2o1	3
Cc1cc2cc(N/C(=N\S(C)(=O)=O)N[C@H]3CCCCN(CC(=O)N4CCCC4)C3=O)ccc2o1	10

* * *

# TARGET_ENTITY: Vitamin K-dependent protein C (Homo sapiens)
# Sequence (P04070 43-197 limits assumed): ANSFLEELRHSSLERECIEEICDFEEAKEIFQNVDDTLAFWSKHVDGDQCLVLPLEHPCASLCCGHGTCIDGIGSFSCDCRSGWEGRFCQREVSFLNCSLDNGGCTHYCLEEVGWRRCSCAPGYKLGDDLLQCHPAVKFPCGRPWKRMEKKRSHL
# Sequence (P04070 212-461 limits assumed): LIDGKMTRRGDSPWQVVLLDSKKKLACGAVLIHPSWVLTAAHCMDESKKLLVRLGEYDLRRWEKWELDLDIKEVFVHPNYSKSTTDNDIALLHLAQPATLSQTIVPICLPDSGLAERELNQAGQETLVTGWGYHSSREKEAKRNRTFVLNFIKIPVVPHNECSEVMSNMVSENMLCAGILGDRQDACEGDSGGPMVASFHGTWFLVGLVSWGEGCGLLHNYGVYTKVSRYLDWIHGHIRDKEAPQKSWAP
# ASSAY_DETAILS: Inhibition of human Activated protein C
pKi: −log10 of the molar value.

COMPOUND_STRUCTURE_STRING	pKi
Cc1cc2cc(N=C(NC(=O)c3ccc(C(=O)N(C)C)nc3)N[C@H]3CCCCN(CC(=O)N4CCCC4)C3=O)ccc2o1	< 4.74

* * *

pIC50: −log10 of the molar value.
pIC50 values recorded for Coagulation factor X (Homo sapiens, UniProt P00742)

COMPOUND_STRUCTURE_STRING	pIC50
Cc1cc2cc(N/C(=N\C(=O)c3cccc(C(=O)N(C)C)c3)N[C@H]3CCCCN(CC(=O)N4CCCC4)C3=O)ccc2o1	8.00
Cc1cc2cc(N/C(=N\C(=O)c3ccc[n+]([O-])c3)N[C@H]3CCCCN(CC(=O)N4CCCC4)C3=O)ccc2o1	8.00
Cc1cc2cc(N/C(=N/[N+](=O)[O-])N[C@H]3CCCCN(CC(=O)N4CCCC4)C3=O)ccc2o1	7.60
Cc1cc2cc(N/C(=N\C(=O)c3ccc(C(N)=O)cc3)N[C@H]3CCCCN(CC(=O)N4CCCC4)C3=O)ccc2o1	8.52
COC(=O)c1cccc(C(=O)/N=C(\Nc2ccc3oc(C)cc3c2)N[C@H]2CCCCN(CC(=O)N3CCCC3)C2=O)c1	8.30
Cc1cc2cc(N/C(=N\S(=O)(=O)c3ccccc3)N[C@H]3CCCCN(CC(=O)N4CCCC4)C3=O)ccc2o1	7.62
Cc1cc2cc(N/C(=N\C(=O)c3cccc(C(N)=O)c3)N[C@H]3CCCCN(CC(=O)N4CCCC4)C3=O)ccc2o1	7.74

* * *

# ASSAY_DETAILS: […] residence time in monkey at 10 mg/kg, iv
# Assay type: ADME, organism-based, Macaca mulatta
# Set-up: dose 10 mg/kg, route intravenous
# SETUP_CONDITIONS: rhesus monkey, in vivo

COMPOUND_STRUCTURE_STRING	MRT
Cc1cc2cc(N=C(NC(=O)c3ccc(C(=O)N(C)C)nc3)N[C@H]3CCCCN(CC(=O)N4CCCC4)C3=O)ccc2o1	4 h

* * *

# ASSAY_DETAILS: […] residence time in dog at 2 mg/kg, iv
# Format: ADME, organism-based, Canis lupus familiaris
# Set-up: dose 2 mg/kg, route intravenous
# SETUP_CONDITIONS: in vivo

COMPOUND_STRUCTURE_STRING	MEASURE_UNIT	MRT
Cc1cc2cc(N=C(NC(=O)c3ccc(C(=O)N(C)C)nc3)N[C@H]3CCCCN(CC(=O)N4CCCC4)C3=O)ccc2o1	h	9

* * *

# ASSAY_DETAILS: […] residence time in rat at 10 mg/kg, iv
# Format: ADME, organism-based
# Parameters: dose 10 mg/kg, route intravenous
# SETUP_CONDITIONS: in vivo
QUANTITY_NAME: MRT (h)

COMPOUND_STRUCTURE_STRING	VALUE_MEASURED
Cc1cc2cc(N=C(NC(=O)c3ccc(C(=O)N(C)C)nc3)N[C@H]3CCCCN(CC(=O)N4CCCC4)C3=O)ccc2o1	2
